B1: FAM46D (parent)
chain: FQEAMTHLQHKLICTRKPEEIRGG

Variants of: B1
PROCEDURE_DETAILS: protein stability index of a GFP-peptide fusion (GPS, HEK-293T) (PSI 1-6); higher = more stable;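 further: lentivirally expressed fusions sorted by FACS into six bins by GFP to DsRed ratio, PSI derived from sequencing read proportions per bin multiplied by bin number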
SETUP_CONDITIONS: c terminus: a fixed tail appended
Label criterion met when protein stability index is at or above 3; otherwise label criterion not met.

Challenge: Is it the case that A4P has protein stability index reaching or exceeding 3?
Response given: criterion not met

Challenge: Is it the case that E3H has protein stability index reaching or exceeding 3?
Response given: criterion not met

Challenge: Is it the case that Q9G has protein stability index reaching or exceeding 3?
Response given: criterion not met

Challenge: Is it the case that A4D has protein stability index reaching or exceeding 3?
Response given: criterion not met

Challenge: Is it the case that T6I has protein stability index reaching or exceeding 3?
Response given: criterion not met

***
Challenge: Is it the case that I13Y has protein stability index reaching or exceeding 3?
Response given: criterion met

Challenge: Is it the case that G24S has protein stability index reaching or exceeding 3?
Response given: criterion not met

Challenge: Is it the case that P18I has protein stability index reaching or exceeding 3?
Response given: criterion not met

Challenge: Is it the case that G23R has protein stability index reaching or exceeding 3?
Response given: criterion not met

Challenge: Is it the case that P18K has protein stability index reaching or exceeding 3?
Response given: criterion not met
